Values from ChEMBL document CHEMBL1201862

system: SK-OV-3; assay: NCI tumour cell line growth inhibition, 48 h
Calls of active or inactive are those of the source. Rule as the data show it: active = GI50 up to about 1.1 µM and inactive = higher.

[
  {
    "COMPOUND": "O=C(CC(NC(=O)OCc1ccccc1)C(=O)NC1Cc2ccccc2C1=O)OCc1ccccc1 (centres undefined)",
    "TEST SYSTEM": "SK-OV-3",
    "GI50": "> 100 µM (inactive)"
  },
  {
    "COMPOUND": "COC(=O)c1ccc(CN2CCc3c([nH]c4ccccc34)C2CO)o1 (centres undefined)",
    "TEST SYSTEM": "SK-OV-3",
    "GI50": "> 10 µM (inactive)"
  },
  {
    "COMPOUND": "O=C1C(=CNc2ccccc2Cl)C(=O)N(c2ccccc2)C(=O)N1c1ccccc1",
    "TEST SYSTEM": "SK-OV-3",
    "GI50": "> 100 µM (inactive)"
  },
  {
    "COMPOUND": "Cc1c2oc3c(C)cnc(C(=O)NC4C(=O)NC(C(C)C)C(=O)N5CCCC5C(=O)N(C)CC(=O)N(C)C(C(C)C)C(=O)OC4C)c3nc-2c(C(=O)NC2C(=O)NC(C(C)C)C(=O)N3CCCC3C(=O)N(C)CC(=O)N(C)C(C(C)C)C(=O)OC2C)c(N)c1=O (centres undefined)",
    "TEST SYSTEM": "SK-OV-3",
    "GI50": "5.6 µM (inactive)"
  }
]

* * *

List of GI50 values.
tested on: UACC-62; assay: NCI tumour cell line growth inhibition, 48 h
Activity calls are given as the source filed them. Cut-off read from the data, not from the text of the source: active = GI50 up to about 1.1 µM and inactive = higher.

[
  {
    "MOLECULE": "Fc1ccc2c(c1)SC1=Nc3sc4cc(F)ccc4[n+]3CN12",
    "GI50": "11.1 µM (inactive)"
  },
  {
    "MOLECULE": "C[C@@H]1CC[C@@]2(C)C(C(=O)O)=CCCC2[C@@]1(C)CC(=O)c1ccoc1 (stereo partly specified)",
    "GI50": "> 25 µM (inactive)"
  },
  {
    "MOLECULE": "CC(=O)n1cc(C2CC23N=C(c2ccccc2)OC3=O)c2ccccc21 (stereo unspecified)",
    "GI50": "16.9 µM (inactive)"
  },
  {
    "MOLECULE": "COc1cc(OCc2nc3ccccc3n3cccc23)cc(OC)c1OC",
    "GI50": "13.8 µM (inactive)"
  },
  {
    "MOLECULE": "N#C[BH2-][n+]1cn(C2CC(O)C(COP(=O)(O)OC3CC(n4c[n+]([BH2-]C#N)c5c(=O)[nH]c(N)nc54)OC3CO)O2)c2nc(N)[nH]c(=O)c21 (stereo unspecified)",
    "GI50": "> 100 µM (inactive)"
  },
  {
    "MOLECULE": "Cn1cnc([N+](=O)[O-])c1Sc1nnc(C(F)(F)F)n1C",
    "GI50": "18 µM (inactive)"
  }
]

* * *

List of GI50 values.
tested on: CCRF-CEM; assay: NCI tumour cell line growth inhibition, 48 h
Activity calls are given as the source filed them. Cut-off read from the data, not from the text of the source: active = GI50 up to about 1.1 µM and inactive = higher.

[
  {
    "COMPOUND": "C/C(=C\\c1csc(C)n1)[C@@H]1C[C@@H]2O[C@]2(C)CCC[C@H](C)[C@H](O)[C@@H](C)C(=O)C(C)(C)[C@@H](O)CC(=O)O1",
    "GI50": "< 0.0001 µM (active)"
  },
  {
    "COMPOUND": "O=C1c2ccccc2C(=O)C2C3c4ccccc4C(c4ccccc43)C12 (stereo not drawn)",
    "GI50": "10.7 µM (inactive)"
  },
  {
    "COMPOUND": "O=c1ssc2ncccc12",
    "GI50": "31.5 µM (inactive)"
  },
  {
    "COMPOUND": "COC(=NC(C)C)NC(C)C",
    "GI50": "> 100 µM (inactive)"
  },
  {
    "COMPOUND": "CCOC(=O)C1=C(C(=O)OCC)SC2(S1)C(C(=O)OCC)=C(C(=O)OCC)Sc1c2ssc1=O",
    "GI50": "0.16 µM (active)"
  },
  {
    "COMPOUND": "O=C1C=C(c2[nH]c3ccccc3c2C2=CC(=O)c3ccccc3C2=O)C(=O)c2ccccc21",
    "GI50": "16.8 µM (inactive)"
  },
  {
    "COMPOUND": "c1ccc2c(c1)CCCC/C2=N/OCC1CO1 (stereo not drawn)",
    "GI50": "46.5 µM (inactive)"
  },
  {
    "COMPOUND": "CCCCCC(O)[C@H]1C(=O)C[C@@H](O[Si](C)(C)C(C)(C)C)[C@@H]1/C=C/CCOCc1ccccc1 (stereo partly drawn)",
    "GI50": "> 55.5 µM (inactive)"
  },
  {
    "COMPOUND": "CCOC(=O)CCC(NC(=O)OCc1ccccc1)C(=O)NC(CCC(=O)OCC)C(=O)NC(CCC(=O)OCC)C(=O)NC(CCC(=O)OCC)C(=O)NC(CCC(=O)OCC)C(=O)OCC (stereo not drawn)",
    "GI50": "> 100 µM (inactive)"
  },
  {
    "COMPOUND": "C[C@H](CCC(=O)O)[C@H]1CC[C@H]2[C@@H]3[C@@H](O)C[C@@H]4C[C@H](O)CC[C@]4(C)[C@H]3CC[C@]12C",
    "GI50": "60.8 µM (inactive)"
  },
  {
    "COMPOUND": "OCCC/N=C1N=C(Cl)/C(=C\\c2ccccc2)N\\1",
    "GI50": "> 100 µM (inactive)"
  },
  {
    "COMPOUND": "c1ccc2cc(CN3CCC(C4CCN(Cc5ccc6ccccc6c5)CC4)CC3)ccc2c1",
    "GI50": "4.06 µM (inactive)"
  },
  {
    "COMPOUND": "Cc1cc2c3c(nc4ccccc42)C(=O)c2ccccc2-c3n1",
    "GI50": "5.16 µM (inactive)"
  },
  {
    "COMPOUND": "Nc1ncnc2c1ncn2[C@H]1CC[C@@H](NO)C1",
    "GI50": "> 100 µM (inactive)"
  },
  {
    "COMPOUND": "C[C@H](CC[C@@H](O)C(C)(C)O)[C@H]1CC[C@@]2(C)[C@@H]3CC=C4[C@@H](CC[C@H](OC5OC(CO)C(O)C(O)C5O)C4(C)C)[C@]3(C)C(=O)C[C@]12C (stereo partly drawn)",
    "GI50": "14.6 µM (inactive)"
  },
  {
    "COMPOUND": "O=C(O)/C(Cl)=C(Cl)/C=N/NC(=O)c1cc2ccccc2cc1O",
    "GI50": "4.86 µM (inactive)"
  },
  {
    "COMPOUND": "COc1cc(OCc2nc3ccccc3n3cccc23)cc(OC)c1OC",
    "GI50": "8.49 µM (inactive)"
  },
  {
    "COMPOUND": "COC(=O)C1=C(\\c2ccccc2)c2ccccc2C(=O)N(C2CCCCC2)/C=C\\1",
    "GI50": "12 µM (inactive)"
  }
]

* * *

tested on: Hs-578T; assay: NCI tumour cell line growth inhibition, 48 h
Active and inactive are the calls of the source. Cut-off read from the data, not from the text of the source: active = GI50 up to about 1.1 µM and inactive = higher.
Outcome codes: Y (active), N (inactive)

[
  {
    "MOLECULE": "CC(=O)n1cc(C2CC23N=C(c2ccccc2)OC3=O)c2ccccc21 (stereo not given)",
    "CLASS ASSIGNMENT": "N"
  },
  {
    "MOLECULE": "COc1cccc(CSCC(=O)O)c1",
    "CLASS ASSIGNMENT": "N"
  },
  {
    "MOLECULE": "CC1CCc2sc3nc(S)n(C)c(=O)c3c2C1 (stereo not given)",
    "CLASS ASSIGNMENT": "N"
  },
  {
    "MOLECULE": "Cc1nc2c(sc3nc4ccccc4n32)c(=O)[nH]1",
    "CLASS ASSIGNMENT": "N"
  },
  {
    "MOLECULE": "Nc1ncnc2c1ncn2[C@H]1CC[C@@H](NO)C1",
    "CLASS ASSIGNMENT": "N"
  },
  {
    "MOLECULE": "Cc1nc2[nH]ccn2c(=O)c1CCCl",
    "CLASS ASSIGNMENT": "N"
  },
  {
    "MOLECULE": "c1ccc(C2=NCCc3cc4c(cc32)OCO4)cc1",
    "CLASS ASSIGNMENT": "N"
  },
  {
    "MOLECULE": "COc1ccc(/N=C(\\C)c2ccncc2)cc1",
    "CLASS ASSIGNMENT": "N"
  },
  {
    "MOLECULE": "CC(C)(C)Nc1noc(=O)n1C(C)(C)C",
    "CLASS ASSIGNMENT": "N"
  },
  {
    "MOLECULE": "Cc1ccc(Nc2c(C#N)[n+]([O-])c3cc(Cl)ccc3[n+]2[O-])cc1",
    "CLASS ASSIGNMENT": "N"
  },
  {
    "MOLECULE": "N=C(N)NCCCCCCC(=O)NC(O)C(=O)NCCCCNCCCN (stereo not given)",
    "CLASS ASSIGNMENT": "N"
  },
  {
    "MOLECULE": "C/C(=C\\c1csc(C)n1)[C@@H]1C[C@@H]2O[C@]2(C)CCC[C@H](C)[C@H](O)[C@@H](C)C(=O)C(C)(C)[C@@H](O)CC(=O)O1",
    "CLASS ASSIGNMENT": "Y"
  },
  {
    "MOLECULE": "O=C(O)CN(CC(=O)O)C(C(=O)O)c1ccccc1 (stereo not given)",
    "CLASS ASSIGNMENT": "N"
  },
  {
    "MOLECULE": "Nc1cnc(Nc2cccc3ccccc23)o1",
    "CLASS ASSIGNMENT": "N"
  },
  {
    "MOLECULE": "Cc1c(O)c(=O)ccn1CCc1c[nH]c2ccccc12",
    "CLASS ASSIGNMENT": "N"
  },
  {
    "MOLECULE": "CN1CC2=C(OC(N)=C(C#N)C2c2cccs2)/C(=C/c2cccs2)C1 (stereo not given)",
    "CLASS ASSIGNMENT": "N"
  },
  {
    "MOLECULE": "O=C1C2CCCCC2C(=O)N1n1c(Cc2ccc(Cl)cc2)n[nH]c1=O (stereo not given)",
    "CLASS ASSIGNMENT": "N"
  },
  {
    "MOLECULE": "CCOC(=O)c1c(N)sc2c1C(C(=O)OCC)CCC2 (stereo not given)",
    "CLASS ASSIGNMENT": "N"
  },
  {
    "MOLECULE": "O=C1C=CC2(C=C1)CCC(=O)O2",
    "CLASS ASSIGNMENT": "N"
  },
  {
    "MOLECULE": "O=C(O)C(O)c1ccc(F)cc1 (stereo not given)",
    "CLASS ASSIGNMENT": "N"
  },
  {
    "MOLECULE": "Cn1ccnc1Sc1ccc(/C=N/NC(=O)c2ccccc2[N+](=O)[O-])cc1[N+](=O)[O-]",
    "CLASS ASSIGNMENT": "N"
  },
  {
    "MOLECULE": "C=CC(Br)(CBr)CCC1OC1(C)C (stereo not given)",
    "CLASS ASSIGNMENT": "N"
  },
  {
    "MOLECULE": "CSc1nc(Cl)c2c(n1)Sc1nc3ccccc3n1N=C2",
    "CLASS ASSIGNMENT": "N"
  },
  {
    "MOLECULE": "CCCC#CCOC(=O)c1cc([N+](=O)[O-])cc([N+](=O)[O-])c1",
    "CLASS ASSIGNMENT": "N"
  },
  {
    "MOLECULE": "O=C(N/N=C/c1ccccc1)c1c(F)c(F)c(F)c(F)c1F",
    "CLASS ASSIGNMENT": "N"
  }
]
